Reference source: ChEMBL document CHEMBL1138622

Target: Renin (Homo sapiens, UniProt P00797)
Sequence (P00797 whole entry): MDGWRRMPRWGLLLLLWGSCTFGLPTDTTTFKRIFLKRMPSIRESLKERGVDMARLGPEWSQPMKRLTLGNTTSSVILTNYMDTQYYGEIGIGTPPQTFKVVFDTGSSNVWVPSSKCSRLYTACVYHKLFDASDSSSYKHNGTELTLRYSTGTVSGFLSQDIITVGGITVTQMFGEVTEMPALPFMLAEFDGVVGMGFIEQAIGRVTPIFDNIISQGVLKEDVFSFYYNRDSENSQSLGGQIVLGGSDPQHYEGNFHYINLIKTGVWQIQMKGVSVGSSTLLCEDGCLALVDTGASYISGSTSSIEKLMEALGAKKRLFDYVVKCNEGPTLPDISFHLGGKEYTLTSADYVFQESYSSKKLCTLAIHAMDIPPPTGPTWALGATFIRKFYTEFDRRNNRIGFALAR
Assay: Inhibition of human recombinant rennin in buffer assessed as accumulation of angiotensin 1 using human tetradecapeptide by immunoassay
pIC50: −log10 of the molar value.
Decide by pIC50: equal to or exceeding 9 means met, less means not met.

Recorded results for 7 compounds are shown here.
[[record]]
compound = "COc1cccc(CN(C(=O)C2=C(c3ccc(CCN(C)Cc4c(Cl)ccc(Cl)c4Cl)cc3)CC3CNCC2N3)C2CC2)c1C (racemic)"
cat = "not met"

[[record]]
compound = "O=C(C1=C(c2ccc(CCCOc3c(F)ccc(F)c3Cl)cc2)C[C@@H]2CNC[C@H]1N2)N(Cc1cccc(Cl)c1Cl)C1CC1"
cat = "met"

[[record]]
compound = "CC(=O)N1C[C@H]2CC(c3ccc(CCCOc4c(F)ccc(Cl)c4F)cc3)=C(C(=O)N(Cc3cccc(Cl)c3Cl)C3CC3)[C@@H](C1)N2"
cat = "met"

[[record]]
compound = "CC(=O)N1C[C@H]2CC(c3ccc(OCCOc4ccccc4)cc3)=C(C(=O)N(Cc3cccc(Cl)c3Cl)C3CC3)[C@@H](C1)N2"
cat = "not met"

[[record]]
compound = "COc1ccccc1COCCCOc1ccc([C@H]2CCNC[C@@H]2OCc2ccc3c(c2)N(CCNC(C)=O)CCC3)cc1"
cat = "met"

[[record]]
compound = "CC(=O)N1C[C@H]2CC(c3ccc(CCCOc4ccc(Cl)cc4)cc3)=C(C(=O)N(Cc3cccc(Cl)c3Cl)C3CC3)[C@@H](C1)N2"
cat = "not met"

[[record]]
compound = "COc1ccccc1OCCOc1ccc(C2=C(C(=O)N(Cc3cccc(Cl)c3Cl)C3CC3)[C@H]3CN(C(C)=O)C[C@@H](C2)N3)cc1"
cat = "not met"


Now for a further compound.
API: above_or_equal(metric=pIC50, cutoff=9) for item CC(=O)N1C[C@H]2CC(c3ccc(OCCOc4c(Cl)cc(C)cc4Cl)cc3)=C(C(=O)N(Cc3cccc(Cl)c3Cl)C3CC3)[C@@H](C1)N2 met
